Target: T1, HUMAN B7H3 (Biacore analyte) (human, UniProt Q5ZPR3 29-461, limits assumed)
T1 construct: also called hB7H3
T1 sequence (looked up): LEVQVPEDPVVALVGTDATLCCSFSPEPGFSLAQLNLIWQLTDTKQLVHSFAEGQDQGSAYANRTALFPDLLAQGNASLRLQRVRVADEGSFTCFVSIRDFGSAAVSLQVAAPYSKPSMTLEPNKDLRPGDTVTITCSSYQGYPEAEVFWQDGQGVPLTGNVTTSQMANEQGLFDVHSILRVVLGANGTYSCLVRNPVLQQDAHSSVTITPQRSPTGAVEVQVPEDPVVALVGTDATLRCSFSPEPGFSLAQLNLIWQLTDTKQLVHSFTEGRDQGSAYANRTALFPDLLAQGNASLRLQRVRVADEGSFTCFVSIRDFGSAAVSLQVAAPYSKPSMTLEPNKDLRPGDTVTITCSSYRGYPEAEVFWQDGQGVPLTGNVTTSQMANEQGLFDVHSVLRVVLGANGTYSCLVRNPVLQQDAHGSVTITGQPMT
Assay: SPR, Biacore 8K, antibody captured, B7H3 as analyte, 1:1 binding
Provide the recorded kon for the entries that follow.
Write the quantity with the unit trailing the number.

10-G6-C4-B2_hVH2-VL1_PTM (antibody, V domains shown, humanized, PTM-optimized antibody from 10-G6-C4-B2) VH: EVQLVESGGGLVQPGGSLRLSCATSGFTLSDYYMSWVRQAPGKGLEWVSFMRNKANAYTTEYSASVRGRFTISRDTSKSTIYLQMNSLRAEDTAVYYCVRDREGRPFAYWGQGTLVTVSS VL: DIVMTQSPDSLAVSLGERATINCKSSQSLLNAINQKNFLTWYQQKPGQPPKLLIYWASTRESGVPDRFSGSGSGTDFTLTISSLQAEDLAVYYCQNDYTYPLTFGQGTKLEIK has a reported kon of 85300 M⁻¹ s⁻¹

The recorded kon for 10-G6-C4-B2 (human IgG1 chimeric antibody) (antibody, V domains shown, human IgG1 chimeric antibody of the mouse clone) VH: EVQLVESGGGLVQPGGSLRLSCATSGFTLSDYYMSWVRQPPGKAPEWLGFMRNKANGYTTEYSASVRGRFTISRDTSQSIIYLQMNTLRAEDGATYYCVRDRDGRPFAYWGQGTLVTVSA VL: DIVMTQSPSSLTVTAGEKVTMSCKSSQSLLNSINQKNFLTWYQQKPGQPPKLLIYWASTRESGVPDRFTGSGSGTDFTLTISSVQAEDLAIYYCQNDYTYPLTFGTGTKLELK is 216000 M⁻¹ s⁻¹

Note to self: kon recorded for 10-G6-C4-B2_hVH5-VL3_PTM (antibody, V domains shown, humanized, PTM-optimized antibody from 10-G6-C4-B2) VH: EVQLVESGGGLVQPGRSLRLSCTTSGFTLSDYYMSWVRQAPGKGLEWVGFMRNKANAYTTEYSASVRGRFTISRDTSKSIIYLQMNSLKTEDTAVYYCVRDREGRPFAYWGQGTLVTVSS VL: DIQMTQSPSSLSASVGDRVTITCKSSQSLLNAINQKNFLTWYQQKPGKAPKLLIYWASTRESGVPSRFSGSGSGTDFTLTISSLQPEDLATYYCQNDYTYPLTFGQGTKLEIK was 146000 M⁻¹ s⁻¹

Entry 10-G6-C4-B2_hVH4-VL2_PTM (antibody, V domains shown, humanized, PTM-optimized antibody from 10-G6-C4-B2) VH: EVQLVESGGGLIQPGGSLRLSCATSGFTLSDYYMSWVRQPPGKGLEWVSFMRNKANAYTTEYSASVRGRFTISRDTSKSTIYLQMNSLRAEDTAVYYCVRDREGRPFAYWGQGTLVTVSS VL: DIVMTQSPLSLPVTPGEPASISCKSSQSLLNAINQKNFLTWYLQKPGQSPQLLIYWASTRESGVPDRFSGSGSGTDFTLKISRVEAEDLGVYYCQNDYTYPLTFGQGTKLEIK — recorded kon = 52700 M⁻¹ s⁻¹

Per the record, 10-G6-C4-B2_hVH5-VL1_PTM (antibody, V domains shown, humanized, PTM-optimized antibody from 10-G6-C4-B2) VH: EVQLVESGGGLVQPGRSLRLSCTTSGFTLSDYYMSWVRQAPGKGLEWVGFMRNKANAYTTEYSASVRGRFTISRDTSKSIIYLQMNSLKTEDTAVYYCVRDREGRPFAYWGQGTLVTVSS VL: DIVMTQSPDSLAVSLGERATINCKSSQSLLNAINQKNFLTWYQQKPGQPPKLLIYWASTRESGVPDRFSGSGSGTDFTLTISSLQAEDLAVYYCQNDYTYPLTFGQGTKLEIK has kon of 147000 M⁻¹ s⁻¹

The binder listed as 10-G6-C4-B2_hVH4-VL1_PTM (antibody, V domains shown, humanized, PTM-optimized antibody from 10-G6-C4-B2) VH: EVQLVESGGGLIQPGGSLRLSCATSGFTLSDYYMSWVRQPPGKGLEWVSFMRNKANAYTTEYSASVRGRFTISRDTSKSTIYLQMNSLRAEDTAVYYCVRDREGRPFAYWGQGTLVTVSS VL: DIVMTQSPDSLAVSLGERATINCKSSQSLLNAINQKNFLTWYQQKPGQPPKLLIYWASTRESGVPDRFSGSGSGTDFTLTISSLQAEDLAVYYCQNDYTYPLTFGQGTKLEIK has a reported kon of 89600 M⁻¹ s⁻¹

Lookup result for 10-G6-C4-B2_hVH3-VL3_PTM (antibody, V domains shown, humanized, PTM-optimized antibody from 10-G6-C4-B2) VH: EVQLVESGGGLVQPGGSLRLSCATSGFTLSDYYMSWVRQAPGKGLEWVGFMRNKANAYTTEYSASVRGRFTISRDTSKSSIYLQMNSLKTEDTAVYYCVRDREGRPFAYWGQGTLVTVSS VL: DIQMTQSPSSLSASVGDRVTITCKSSQSLLNAINQKNFLTWYQQKPGKAPKLLIYWASTRESGVPSRFSGSGSGTDFTLTISSLQPEDLATYYCQNDYTYPLTFGQGTKLEIK ; measured kon: 118000 M⁻¹ s⁻¹

Source listed as patent US20240400689A1.
